Target: human TLR9 (Homo sapiens, UniProt Q9NR96)
Sequence (Q9NR96 26-1032): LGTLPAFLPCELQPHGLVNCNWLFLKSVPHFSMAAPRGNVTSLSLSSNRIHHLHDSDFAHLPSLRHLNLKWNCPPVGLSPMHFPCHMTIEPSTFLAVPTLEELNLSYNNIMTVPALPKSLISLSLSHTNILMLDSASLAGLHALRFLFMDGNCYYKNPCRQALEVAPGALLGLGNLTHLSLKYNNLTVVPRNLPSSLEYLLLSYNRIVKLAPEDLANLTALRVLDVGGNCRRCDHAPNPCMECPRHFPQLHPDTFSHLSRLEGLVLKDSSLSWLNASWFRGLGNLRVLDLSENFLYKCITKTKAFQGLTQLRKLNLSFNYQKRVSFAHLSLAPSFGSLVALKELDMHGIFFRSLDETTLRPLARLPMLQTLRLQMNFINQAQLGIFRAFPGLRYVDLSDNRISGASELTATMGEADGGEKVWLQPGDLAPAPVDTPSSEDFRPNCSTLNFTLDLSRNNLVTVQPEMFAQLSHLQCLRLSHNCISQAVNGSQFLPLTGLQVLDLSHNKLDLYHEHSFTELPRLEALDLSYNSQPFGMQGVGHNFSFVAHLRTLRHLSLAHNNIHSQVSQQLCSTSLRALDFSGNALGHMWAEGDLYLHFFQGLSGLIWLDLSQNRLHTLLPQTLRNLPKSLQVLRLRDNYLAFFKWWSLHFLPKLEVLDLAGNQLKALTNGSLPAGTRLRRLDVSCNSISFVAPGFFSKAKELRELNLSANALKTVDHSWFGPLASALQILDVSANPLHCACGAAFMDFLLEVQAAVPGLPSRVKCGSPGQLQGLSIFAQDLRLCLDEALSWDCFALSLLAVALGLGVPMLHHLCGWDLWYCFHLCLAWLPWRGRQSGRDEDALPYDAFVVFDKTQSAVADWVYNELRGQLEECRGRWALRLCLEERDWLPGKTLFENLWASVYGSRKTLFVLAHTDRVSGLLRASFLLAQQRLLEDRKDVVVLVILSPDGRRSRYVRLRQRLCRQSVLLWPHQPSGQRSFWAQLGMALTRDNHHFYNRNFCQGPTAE
Assay: TLR9 inhibition reporter assay (HEK-Blue cells, SEAP reporter, ODN2006 stimulation)
Details: HEK-Blue cells overexpressing human TLR9, SEAP reporter, ODN2006 5 nM
Source text: TLR7/8/9 Inhibition Reporter Assays HEK-Blue™-cells (Invivogen) overexpressing human TLR7, TLR8 or TLR9 receptors were used for screening inhibitors of these receptors using an inducible SEAP (secreted embryonic alkaline phosphatase) reporter gene under the control of the IFN-β minimal promoter fused to five NF-κB and AP-1-binding sites. […]
pIC50: −log10 of the molar value.

smiles_code: Cc1c(-c2[nH]c3ccc(C4CCN(CC(C)(C)O)CC4)cc3c2C(C)C)ccc2c1cnn2C
pIC50: 4.30 to 6.00

smiles_code: Cc1ncc(CN2CCC(c3ccc4[nH]c(-c5cn(C)c6ncccc56)c(C(C)C)c4c3)CC2)cn1
pIC50: 4.30 to 6.00

smiles_code: CC(C)c1c(-c2cnc3ncnn3c2)[nH]c2ccc(C3CCN(C4COC4)CC3)cc12
pIC50: 4.30 to 6.00

smiles_code: Cc1cc(-c2[nH]c3ccc(C4CCN(C(=O)CCN5CCC(F)(F)CC5)CC4)cc3c2C(C)C)cn2nnnc12
pIC50: 4.30 to 6.00

smiles_code: Cc1c(-c2ccnc3[nH]nc(C)c23)[nH]c2ccc(C3CCNCC3)cc12
pIC50: 6.00 to 7.00

smiles_code: Cc1cc(-c2[nH]c3ccc(C4CCN(CC(=O)N(C)C)CC4)cc3c2C(C)C)cc2ncnn12
pIC50: 4.30 to 6.00

smiles_code: Cc1cc(-c2[nH]c3ccc(C4CCN(C(CO)CO)CC4)cc3c2C(C)C)cc2nccn12
pIC50: > 7.00

smiles_code: CCc1c(-c2ccnc3[nH]ncc23)[nH]c2ccc(C3CCN(Cc4cnn(C)c4)CC3)cc12
pIC50: 4.30 to 6.00
